Tested System: T1, obscurin Ig58-Ig59 (wild type) (human, UniProt Q5VST9 4337-4521, labelled with the Monolith NT Protein Labeling kit RED-NHS (in the MST experiments only))
T1 construct: obscurin, human, domains Ig58-Ig59, residues 4337-4521 based on NM_001098623/NP_001092093 (transcript variant B); The vector encodes His6 followed by a TEV cleavage site; no cleavage is described; The His6 tag holds the protein on Ni-NTA beads in the pull-downs; also called Ig58-Ig59WT; O5859; source: E. coli BL21-CodonPlus (DE3)-RIPL, purified (Ni-NTA); not shown: His6, N-terminal, kept
T1 sequence (looked up): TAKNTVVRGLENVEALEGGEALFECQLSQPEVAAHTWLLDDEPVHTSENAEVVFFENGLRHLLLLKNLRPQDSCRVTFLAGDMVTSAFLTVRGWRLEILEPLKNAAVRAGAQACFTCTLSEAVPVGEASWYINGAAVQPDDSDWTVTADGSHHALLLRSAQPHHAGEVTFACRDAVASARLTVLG
Assay Explanation: MST; obscurin Ig58-Ig59 labelled with RED-NHS (typically 50-100 nM); unlabelled PLN peptides diluted serially; PBS, 0.2% (v/v) Triton X-100, 2 mM DTT; Monolith NT.115; one-site binding model
Condition Label: both partners purified
Metric Name: pKd
Give only the number. pKd is defined as minus log10 of concentration in molar units.

# Binder, Metric Name, Reported Result
records = [
    ("human full-length phospholamban (peptide, UniProt P26678 1-52, looked up, phospholamban, human, full length (synthetic); Kept in buffer with Triton X-100; seen on gels as monomeric and pentameric bands, both of which were pulled down by Ig58-Ig59; also called PLN; source: synthetic peptide, bought: Pepscan) MEKVQYLTRSAIRRASTIEMPQQARQKLQNLFINFCLILICLLLICIIVMLL", "pKd", 4.72),
]

query: So what's the measured pKd for this one? QARQKLQNLFINFCLILICLLLICIIVMLL (peptide, UniProt P26678 23-52, looked up, phospholamban, human, transmembrane region, residues 23-52 (synthetic); source: synthetic peptide, bought: Pepscan) [phospholamban transmembrane region PLN(23-52)]
result: 4.23
